# TARGET_ENTITY: UniProt:Q93009
# Sequence (Q93009 whole entry): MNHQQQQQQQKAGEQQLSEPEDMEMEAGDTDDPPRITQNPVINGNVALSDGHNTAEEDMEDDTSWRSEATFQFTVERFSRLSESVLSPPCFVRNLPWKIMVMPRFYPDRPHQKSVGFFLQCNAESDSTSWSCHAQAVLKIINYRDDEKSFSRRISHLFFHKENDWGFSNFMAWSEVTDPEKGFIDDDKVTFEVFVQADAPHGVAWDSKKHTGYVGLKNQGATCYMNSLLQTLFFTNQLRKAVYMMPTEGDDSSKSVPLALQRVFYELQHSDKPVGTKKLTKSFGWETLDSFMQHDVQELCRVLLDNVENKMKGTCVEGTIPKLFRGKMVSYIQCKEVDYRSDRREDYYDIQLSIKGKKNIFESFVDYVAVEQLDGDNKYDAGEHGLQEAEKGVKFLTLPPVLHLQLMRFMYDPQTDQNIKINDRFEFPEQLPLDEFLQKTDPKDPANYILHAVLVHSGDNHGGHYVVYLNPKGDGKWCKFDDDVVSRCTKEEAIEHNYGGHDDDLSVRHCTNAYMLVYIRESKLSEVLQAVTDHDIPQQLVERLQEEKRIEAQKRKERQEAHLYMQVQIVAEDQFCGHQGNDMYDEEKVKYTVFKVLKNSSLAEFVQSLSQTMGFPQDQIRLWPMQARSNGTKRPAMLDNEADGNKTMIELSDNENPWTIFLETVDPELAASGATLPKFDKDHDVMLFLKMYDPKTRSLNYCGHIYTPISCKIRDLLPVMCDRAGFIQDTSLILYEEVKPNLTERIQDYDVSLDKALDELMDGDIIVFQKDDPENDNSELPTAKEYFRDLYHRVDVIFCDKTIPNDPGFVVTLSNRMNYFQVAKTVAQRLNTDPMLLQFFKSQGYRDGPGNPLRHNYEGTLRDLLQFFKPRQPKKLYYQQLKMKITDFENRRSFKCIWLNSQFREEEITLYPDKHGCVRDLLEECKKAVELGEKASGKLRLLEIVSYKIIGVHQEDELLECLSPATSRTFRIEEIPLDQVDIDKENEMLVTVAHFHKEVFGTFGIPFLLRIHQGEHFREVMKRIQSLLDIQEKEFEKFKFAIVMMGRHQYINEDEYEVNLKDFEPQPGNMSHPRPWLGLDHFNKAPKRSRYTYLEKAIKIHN
METRIC_NAME: IC50 (µM)
Write the number in µM without appending the unit.

Give the measured IC50 of CC(=O)c1nc([N+](=O)[O-])c(Sc2ccc(Cl)c(Cl)c2)s1 .
18

Same read-out for O=C(NCc1ccccc1)c1nc([N+](=O)[O-])c(Sc2c(Cl)cncc2Cl)s1 ?
4.21

Same read-out for O=C(Nc1ccccc1)c1nc([N+](=O)[O-])c(Sc2c(Cl)cncc2Cl)s1 ?
40.5

Same read-out for O=C(NCc1cccc(F)c1)c1nc([N+](=O)[O-])c(Sc2c(Cl)cncc2Cl)s1 ?
1.35

Same read-out for CC(O)c1nc([N+](=O)[O-])c(Sc2c(Cl)cncc2Cl)s1 (centres undefined) ?
6.95

Same read-out for CC(NCc1ccccc1)c1nc([N+](=O)[O-])c(Sc2c(Cl)cncc2Cl)s1 (centres undefined) ?
26.8

Same read-out for CC(=O)c1nc([N+](=O)[O-])c(Sc2c(Cl)cncc2Cl)s1 ?
0.67
